Target: human MMP-3 (Homo sapiens, UniProt P08254)
Construct: purchased R&D Systems, Minneapolis
Sequence (P08254 100-477): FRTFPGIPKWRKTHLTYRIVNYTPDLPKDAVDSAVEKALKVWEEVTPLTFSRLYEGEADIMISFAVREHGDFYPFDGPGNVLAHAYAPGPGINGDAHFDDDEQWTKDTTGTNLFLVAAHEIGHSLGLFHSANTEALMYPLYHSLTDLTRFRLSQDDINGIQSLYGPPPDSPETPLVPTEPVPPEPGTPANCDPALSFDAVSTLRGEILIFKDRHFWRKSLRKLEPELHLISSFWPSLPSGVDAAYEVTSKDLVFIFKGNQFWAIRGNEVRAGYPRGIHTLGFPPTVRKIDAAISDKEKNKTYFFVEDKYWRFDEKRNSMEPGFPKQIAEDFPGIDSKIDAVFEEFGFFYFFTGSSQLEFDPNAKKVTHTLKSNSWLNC
Assay: Determination of MMP inhibitory potency, MMP-3
Assay type: biochemical
Conditions: read-out: IC50 (μM) on MMP-3
The following compounds are shown together with reported IC50 values.
endpoint_label: IC50

[[record]]
compound = "O=C(NCCCCCCCCNS(=O)(=O)c1ccc(Oc2ccccc2)cc1)P(=O)(O)O"
endpoint_label = "IC50"
readout_value = "> 100 µM"

[[record]]
compound = "N[C@H](CNC(=O)P(=O)(O)O)CNS(=O)(=O)c1ccc(Oc2ccccc2)cc1"
endpoint_label = "IC50"
readout_value = "> 100 µM"

[[record]]
compound = "O=C(NCCCCNS(=O)(=O)c1ccc(Oc2ccccc2)cc1)P(=O)(O)O"
endpoint_label = "IC50"
readout_value = "> 100 µM"

[[record]]
compound = "NC(CNC(=O)P(=O)(O)O)CNS(=O)(=O)c1ccc(Oc2ccccc2)cc1 (racemic)"
endpoint_label = "IC50"
readout_value = "> 100 µM"

[[record]]
compound = "O=C(NCCNCCNS(=O)(=O)c1ccc(Oc2ccccc2)cc1)P(=O)(O)O"
endpoint_label = "IC50"
readout_value = "> 100 µM"

[[record]]
compound = "O=C(NCCCCCNS(=O)(=O)c1ccc(Oc2ccccc2)cc1)P(=O)(O)O"
endpoint_label = "IC50"
readout_value = "> 100 µM"

[[record]]
compound = "O=C(NCCNS(=O)(=O)c1ccc(Oc2ccccc2)cc1)P(=O)(O)O"
endpoint_label = "IC50"
readout_value = "> 100 µM"

[[record]]
compound = "O=C(NCCCCCCNS(=O)(=O)c1ccc(Oc2ccccc2)cc1)P(=O)(O)O"
endpoint_label = "IC50"
readout_value = "> 100 µM"

[[record]]
compound = "O=C(NCCCNS(=O)(=O)c1ccc(Oc2ccccc2)cc1)P(=O)(O)O"
endpoint_label = "IC50"
readout_value = "35 µM"

[[record]]
compound = "O=C(NCCCCCCCNS(=O)(=O)c1ccc(Oc2ccccc2)cc1)P(=O)(O)O"
endpoint_label = "IC50"
readout_value = "> 100 µM"


----------
The following molecules are shown together with reported IC50 values.
Target: human MMP-8 (Homo sapiens, UniProt P22894)
Construct: purchased R&D Systems, Minneapolis
Sequence (P22894 101-467): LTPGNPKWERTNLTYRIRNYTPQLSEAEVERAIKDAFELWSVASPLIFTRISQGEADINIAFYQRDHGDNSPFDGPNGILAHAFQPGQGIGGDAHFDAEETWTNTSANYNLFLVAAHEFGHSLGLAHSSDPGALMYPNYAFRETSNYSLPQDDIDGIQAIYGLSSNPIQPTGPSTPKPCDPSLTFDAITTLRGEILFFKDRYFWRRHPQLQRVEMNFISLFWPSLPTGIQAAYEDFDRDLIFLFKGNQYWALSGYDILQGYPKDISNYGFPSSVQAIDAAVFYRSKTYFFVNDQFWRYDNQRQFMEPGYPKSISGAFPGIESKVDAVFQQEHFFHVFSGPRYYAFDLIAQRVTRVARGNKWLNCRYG
Test: Determination of MMP inhibitory potency, MMP-8
Format: biochemical
Conditions: read-out: IC50 (μM) on MMP-8
endpoint_label: IC50

[[record]]
molecule = "N[C@@H](CNC(=O)P(=O)(O)O)CNS(=O)(=O)c1ccc(Oc2ccccc2)cc1 [Compound 8S]"
experimental_system = "human MMP-8 (Homo sapiens, UniProt P22894)"
readout_value = "> 100 µM"

[[record]]
molecule = "O=C(NCCNCCNS(=O)(=O)c1ccc(Oc2ccccc2)cc1)P(=O)(O)O [Compound 10]"
experimental_system = "human MMP-8 (Homo sapiens, UniProt P22894)"
readout_value = "> 100 µM"

[[record]]
molecule = "O=C(NCCCCCCNS(=O)(=O)c1ccc(Oc2ccccc2)cc1)P(=O)(O)O [Compound 5]"
experimental_system = "human MMP-8 (Homo sapiens, UniProt P22894)"
readout_value = "> 100 µM"

[[record]]
molecule = "N[C@H](CNC(=O)P(=O)(O)O)CNS(=O)(=O)c1ccc(Oc2ccccc2)cc1 [Compound 8R]"
experimental_system = "human MMP-8 (Homo sapiens, UniProt P22894)"
readout_value = "15 µM"

[[record]]
molecule = "O=C(NCCCNS(=O)(=O)c1ccc(Oc2ccccc2)cc1)P(=O)(O)O [Compound 2]"
experimental_system = "human MMP-8 (Homo sapiens, UniProt P22894)"
readout_value = "> 100 µM"

[[record]]
molecule = "O=C(NCCCCNS(=O)(=O)c1ccc(Oc2ccccc2)cc1)P(=O)(O)O [Compound 3]"
experimental_system = "human MMP-8 (Homo sapiens, UniProt P22894)"
readout_value = "> 100 µM"

[[record]]
molecule = "NC(CNC(=O)P(=O)(O)O)CNS(=O)(=O)c1ccc(Oc2ccccc2)cc1 (racemic) [Compound 8]"
experimental_system = "human MMP-8 (Homo sapiens, UniProt P22894)"
readout_value = "12 µM"

[[record]]
molecule = "O=C(NCCCCCNS(=O)(=O)c1ccc(Oc2ccccc2)cc1)P(=O)(O)O [Compound 4]"
experimental_system = "human MMP-8 (Homo sapiens, UniProt P22894)"
readout_value = "> 100 µM"


----------
The following compounds are shown together with reported IC50 values.
Biological target: human MMP-8 (Homo sapiens, UniProt P22894)
Construct: purchased R&D Systems, Minneapolis
Assay: Determination of MMP inhibitory potency, MMP-8
Assay type: biochemical
Conditions: read-out: IC50 (μM) on MMP-8
endpoint_label: IC50

[[record]]
compound = "O=C(NCCCCCCCNS(=O)(=O)c1ccc(Oc2ccccc2)cc1)P(=O)(O)O [Compound 6]"
readout_value = "> 100 µM"

[[record]]
compound = "O=C(NCCCCCCCCNS(=O)(=O)c1ccc(Oc2ccccc2)cc1)P(=O)(O)O [Compound 7]"
readout_value = "> 100 µM"

[[record]]
compound = "O=C(NCCNS(=O)(=O)c1ccc(Oc2ccccc2)cc1)P(=O)(O)O [Compound 1]"
readout_value = "> 100 µM"


----------
Target: human MMP-12 (Homo sapiens, UniProt P39900)
Construct: purchased R&D Systems, Minneapolis
Sequence (P39900 106-470): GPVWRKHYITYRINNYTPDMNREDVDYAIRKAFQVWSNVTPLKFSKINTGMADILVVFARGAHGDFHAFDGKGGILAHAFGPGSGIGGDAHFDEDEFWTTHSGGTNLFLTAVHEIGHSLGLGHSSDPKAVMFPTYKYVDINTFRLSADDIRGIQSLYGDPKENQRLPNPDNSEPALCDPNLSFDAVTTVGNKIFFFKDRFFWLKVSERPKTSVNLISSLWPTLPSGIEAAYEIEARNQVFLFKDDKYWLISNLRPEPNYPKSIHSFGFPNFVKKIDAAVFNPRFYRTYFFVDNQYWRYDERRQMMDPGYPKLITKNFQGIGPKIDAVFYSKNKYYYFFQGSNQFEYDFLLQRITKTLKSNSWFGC
Test: Determination of MMP inhibitory potency, MMP-12
Type: biochemical
endpoint_label: IC50

[[record]]
compound = "N[C@H]1CCCC[C@H]1NC(=O)P(=O)(O)O (relative stereo) [YK-162, reference compound]"
readout_value = "> 100 µM"


----------
Target: human MMP-9 (Homo sapiens, UniProt P14780)
Construct: purchased R&D Systems, Minneapolis
Sequence (P14780 94-707): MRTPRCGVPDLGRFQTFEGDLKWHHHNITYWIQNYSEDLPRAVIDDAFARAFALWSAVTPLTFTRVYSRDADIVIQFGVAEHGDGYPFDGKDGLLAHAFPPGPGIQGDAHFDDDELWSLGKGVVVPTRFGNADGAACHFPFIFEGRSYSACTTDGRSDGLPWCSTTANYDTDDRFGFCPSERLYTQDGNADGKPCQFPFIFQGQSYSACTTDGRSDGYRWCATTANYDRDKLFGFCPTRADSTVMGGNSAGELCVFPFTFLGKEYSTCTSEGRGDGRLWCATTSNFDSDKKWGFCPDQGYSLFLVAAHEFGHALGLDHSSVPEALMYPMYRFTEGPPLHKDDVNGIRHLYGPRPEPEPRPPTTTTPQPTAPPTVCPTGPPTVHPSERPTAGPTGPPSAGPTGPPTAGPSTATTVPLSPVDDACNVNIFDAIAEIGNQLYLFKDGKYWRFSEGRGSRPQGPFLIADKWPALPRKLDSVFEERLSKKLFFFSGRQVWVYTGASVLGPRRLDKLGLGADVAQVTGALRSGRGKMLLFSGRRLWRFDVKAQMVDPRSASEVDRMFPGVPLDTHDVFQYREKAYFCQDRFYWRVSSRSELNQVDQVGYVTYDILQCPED
Assay: Determination of MMP inhibitory potency, MMP-9
Format: biochemical
Conditions: read-out: IC50 (μM) on MMP-9
The following compounds are shown together with reported IC50 values.
endpoint_label: IC50

[[record]]
compound = "O=C(NCCCCCCCNS(=O)(=O)c1ccc(Oc2ccccc2)cc1)P(=O)(O)O"
readout_value = "> 100 µM"

[[record]]
compound = "N[C@@H](CNC(=O)P(=O)(O)O)CNS(=O)(=O)c1ccc(Oc2ccccc2)cc1"
readout_value = "> 100 µM"

[[record]]
compound = "NC(CNC(=O)P(=O)(O)O)CNS(=O)(=O)c1ccc(Oc2ccccc2)cc1 (racemic)"
readout_value = "12 µM"


----------
The following compounds are shown together with reported IC50 values.
Target: TACE (Homo sapiens, UniProt P78536)
Construct: purchased R&D Systems, Minneapolis
Sequence (P78536 215-824): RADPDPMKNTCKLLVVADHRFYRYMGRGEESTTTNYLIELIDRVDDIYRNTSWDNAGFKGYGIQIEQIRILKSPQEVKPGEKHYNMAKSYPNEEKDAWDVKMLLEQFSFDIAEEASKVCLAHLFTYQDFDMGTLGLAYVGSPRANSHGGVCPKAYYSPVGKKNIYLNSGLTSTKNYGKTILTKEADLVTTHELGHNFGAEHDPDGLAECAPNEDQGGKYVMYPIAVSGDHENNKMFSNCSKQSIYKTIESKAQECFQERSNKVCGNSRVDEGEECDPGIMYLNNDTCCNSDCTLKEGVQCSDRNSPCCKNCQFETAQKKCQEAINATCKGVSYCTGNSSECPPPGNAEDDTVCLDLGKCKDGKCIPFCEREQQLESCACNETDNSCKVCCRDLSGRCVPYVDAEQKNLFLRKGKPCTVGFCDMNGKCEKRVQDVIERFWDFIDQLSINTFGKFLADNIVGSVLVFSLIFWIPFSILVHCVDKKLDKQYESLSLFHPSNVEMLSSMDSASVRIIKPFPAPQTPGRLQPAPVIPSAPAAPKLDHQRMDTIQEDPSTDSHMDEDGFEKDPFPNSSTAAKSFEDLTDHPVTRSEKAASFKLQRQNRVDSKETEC
Experiment: Determination of inhibitory potency, TACE
Type: biochemical
Settings: read-out: IC50 (μM) on TACE
endpoint_label: IC50

[[record]]
line_notation = "N[C@@H](CNC(=O)P(=O)(O)O)CNS(=O)(=O)c1ccc(Oc2ccccc2)cc1"
readout_value = "> 100 µM"

[[record]]
line_notation = "N[C@H](CNC(=O)P(=O)(O)O)CNS(=O)(=O)c1ccc(Oc2ccccc2)cc1"
readout_value = "> 100 µM"

[[record]]
line_notation = "O=C(NCCNCCNS(=O)(=O)c1ccc(Oc2ccccc2)cc1)P(=O)(O)O"
readout_value = "> 100 µM"

[[record]]
line_notation = "O=C(NCCCCCNS(=O)(=O)c1ccc(Oc2ccccc2)cc1)P(=O)(O)O"
readout_value = "> 100 µM"

[[record]]
line_notation = "O=C(NCCCCNS(=O)(=O)c1ccc(Oc2ccccc2)cc1)P(=O)(O)O"
readout_value = "> 100 µM"

[[record]]
line_notation = "O=C(NCCCNS(=O)(=O)c1ccc(Oc2ccccc2)cc1)P(=O)(O)O"
readout_value = "> 100 µM"

